Measured values drawn from patent US6552082B2 for this set.

- assay.notes: stability of the drug products (pH and residual rate of freeze-dried products)
- Format: physicochemical
- condition: aqueous buffer; solvent exclusively water, with pH adjuster; read-out: solubility of the above solution (water with pH adjuster)
readout.name: solubility

Consider the compound `CC(C)(C)C(=O)Oc1ccc(S(=O)(=O)Nc2ccccc2C(=O)NCC(=O)[O-])cc1.[Na+]` and give its measured solubility.
~20 mg/mL

---

- assay.notes: solubility of the compound (I) in normal solvents
- Format: physicochemical
- condition: water; read-out: solubility in water
readout.name: solubility

Reported solubility for `CC(C)(C)C(=O)Oc1ccc(S(=O)(=O)Nc2ccccc2C(=O)NCC(=O)[O-])cc1.[Na+]` : what is it?
< 400 µg/mL
